Experiment: E. coli acrAB mutant growth effects, primary screen, E. coli filamentation inducers, strain DRC39, OD650, 24 h (AID 1178);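 further: growth measured as culture turbidity by optical density at 650 nm; test concentration not given here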
Settings: higher = more signal, called active from +8 up or from −8 down
readout_kind: z-score
Lab note: write the figure by itself, no unit.

Solved cases below.
entry_smiles: O=C1C2=CC[C@H]3C(=O)N(C4CCCCC4)C(=O)[C@H]3[C@H]2[C@H](O)[C@@H]2O[C@H]12
readout_kind: z-score
val: 0.0488

entry_smiles: CCN1C(=O)[C@H]2[C@H]3[C@H](O)[C@H](O)CC(=NOC[C@@H](O)COCc4ccco4)[C@H]3CC[C@H]2C1=O
readout_kind: z-score
val: -0.0557

entry_smiles: CCOC(=O)CCN1C(=O)[C@H]2[C@H]3[C@H](O)[C@H](O)CC(=NO[C@@H]4O[C@H](CO)[C@@H](O)[C@H](O)[C@H]4O)[C@H]3CC[C@H]2C1=O
readout_kind: z-score
val: -0.739

Data request: Fill in: z-score of CC1(C)O[C@H]2O[C@H]([C@H](O)CON=C3[C@H]4CCn5c(=O)n(-c6ccccc6)c(=O)n5[C@H]4[C@H](O)[C@@H]4O[C@H]34)[C@H](O)[C@H]2O1 is ___
Data returned: 0.483

Data request: Fill in: z-score of CC(CCN1CCCc2nc(C)c(C)cc21)=NOC[C@@H](O)COCc1ccco1 is ___
Data returned: 0.557

Data request: Fill in: z-score of COC(=O)CC=C[C@@H](C)[C@@H](C=NOC[C@@H](O)COCc1ccco1)OC is ___
Data returned: 0.539

Data request: Fill in: z-score of CCOC(=O)CCN1C(=O)[C@H]2[C@@H]3C(=CC[C@H]2C1=O)C(=O)[C@H]1O[C@H]1[C@H]3O is ___
Data returned: -0.254

###

Target: Follistatin-related protein 3 (Homo sapiens) (UniProt O95633)
Sequence (O95633 whole entry, looked up): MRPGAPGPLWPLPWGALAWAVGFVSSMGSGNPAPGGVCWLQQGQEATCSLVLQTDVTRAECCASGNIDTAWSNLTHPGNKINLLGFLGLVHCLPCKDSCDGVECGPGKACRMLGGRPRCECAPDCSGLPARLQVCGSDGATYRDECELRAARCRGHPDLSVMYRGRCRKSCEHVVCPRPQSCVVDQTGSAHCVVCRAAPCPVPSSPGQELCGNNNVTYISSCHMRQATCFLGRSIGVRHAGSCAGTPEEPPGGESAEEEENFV
Experiment: FSTL3 binders on small-molecule microarrays, primary screen, biochemical, small-molecule microarray, 635 nm fluorescence (AID 1105);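 further: score merges emission near 667 nm and signal to noise per printed spot across three slides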
Conditions: FSTL3 binding, higher = more signal
Is composite z-score at least 0.3? Then True. If not, False.

compound: COC(=O)[C@H](C)NC(=O)CCC1CC(OC(=O)NCc2ccc3c(c2)OCO3)CC2(CCCC(COC(=O)NCCc3ccc(Cl)cc3)O2)O1 (stereo partly specified)
label: True

Data request: Is composite z-score for COC(=O)[C@@H]1CC[C@H](C)[C@@H](c2ccc(Br)cc2)N1 at or above 0.3?
Data returned: False

Data request: Is composite z-score for COC(=O)[C@H](C)NC(=O)CCC1CC(OC(=O)NCCc2ccc(F)cc2)CC2(CCCC(COC(=O)NCCOc3ccccc3)O2)O1 (stereo partly specified) at or above 0.3?
Data returned: True

###

Assay: P. aeruginosa biofilm formation inhibitors, primary screen, strain PAO1, LB-PBS medium, absorbance 600 nm (AID 1176); further: test concentration not given here
Settings: P. aeruginosa PAO1 growth/biofilm, A600, 12 h; higher = more signal
Is z-score at least -0.4? Then Criterion met. If not, Criterion not met.

Data request: Is z-score for CCCNC(=O)OC[C@H]1O[C@H](CCON=C[C@@H](NS(=O)(=O)c2ccc(C)cc2)[C@H](C)C=CCC(=O)OC)C=C[C@@H]1Oc1ccc(OC)cc1 at or above -0.4?
Data returned: Criterion met

Data request: Is z-score for CO[C@@H](C(C)C)[C@@H](C)C1OC(=O)CC1O (stereo partly drawn) at or above -0.4?
Data returned: Criterion met

Data request: Is z-score for CC(C)CON=C1C[C@@H](O)[C@@H](O)[C@@H]2[C@@H]3C(=O)N(C(C)(C)C)C(=O)[C@@H]3CC[C@@H]12 at or above -0.4?
Data returned: Criterion met

Data request: Is z-score for COC(=O)CC=C[C@@H](C)[C@@H](C=NOC[C@@H](O)COCc1ccco1)OC at or above -0.4?
Data returned: Criterion not met

Data request: Is z-score for CCOC(=O)[C@H](CC(C)C)NC(=O)CCC1CC(OC(=O)NCCc2ccc(F)cc2)CC2(CCCC(COC(=O)NCc3cccc(C(F)(F)F)c3)O2)O1 (stereo partly drawn) at or above -0.4?
Data returned: Criterion met

Data request: Is z-score for CC(C)=NOC(C)CN1CCCCc2nc(C)c(C)cc21 (stereo not drawn) at or above -0.4?
Data returned: Criterion met

Data request: Is z-score for CC(C)CON=C1[C@H]2CCn3c(=O)n(C)c(=O)n3[C@H]2[C@H](O)[C@@H]2O[C@H]12 at or above -0.4?
Data returned: Criterion not met

Data request: Is z-score for CC(=O)OC[C@H]1O[C@@H](ON=C2[C@H]3CCn4c(=O)n(-c5ccccc5)c(=O)n4[C@H]3[C@H](O)[C@@H]3O[C@H]23)[C@H](OC(C)=O)[C@@H](OC(C)=O)[C@@H]1OC(C)=O at or above -0.4?
Data returned: Criterion not met
